Answer each item with its documented OD450 nm.
biological target: HRgpA-6H (Porphyromonas gingivalis) (UniProt P28784); assay: ELISA, coated HRgpA-6H
Give bare numbers.

Consider the following illustrative entries.
KB001 mouse Fab VH S56L (Fab, V domains shown) VH: EVQLKQSGPGLVAPSQSLSITCTVSGFSLSIYSVHWVRQPPGKGLEWLGMIWGGGLSDYNSALKSRLSISKDNSKSQVFLKMNSLQTDDTAMYYCARNGNFYAMDYWGQGTSVTVSS VL: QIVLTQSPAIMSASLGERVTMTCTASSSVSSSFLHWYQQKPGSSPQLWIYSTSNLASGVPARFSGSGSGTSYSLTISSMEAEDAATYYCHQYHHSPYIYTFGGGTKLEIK : 0.71
KB001 mouse Fab VL T24H (Fab, V domains shown) VH: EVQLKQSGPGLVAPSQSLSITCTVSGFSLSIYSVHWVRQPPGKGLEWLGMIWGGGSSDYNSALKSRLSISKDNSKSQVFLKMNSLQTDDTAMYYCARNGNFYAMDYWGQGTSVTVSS VL: QIVLTQSPAIMSASLGERVTMTCHASSSVSSSFLHWYQQKPGSSPQLWIYSTSNLASGVPARFSGSGSGTSYSLTISSMEAEDAATYYCHQYHHSPYIYTFGGGTKLEIK : 0.795

From here, focus on the item given below.
Prompt line: I am curious: what OD450 nm value has been reported for KB001 mouse Fab VH G26N (Fab, V domains shown) VH: EVQLKQSGPGLVAPSQSLSITCTVSNFSLSIYSVHWVRQPPGKGLEWLGMIWGGGSSDYNSALKSRLSISKDNSKSQVFLKMNSLQTDDTAMYYCARNGNFYAMDYWGQGTSVTVSS VL: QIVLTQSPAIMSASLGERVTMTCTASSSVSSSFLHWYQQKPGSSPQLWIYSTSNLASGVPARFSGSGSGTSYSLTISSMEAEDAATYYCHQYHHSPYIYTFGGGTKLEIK ?
Response line: 0.445
